Entries and their pIC50 values follow.
- experimental-target: purified HLA-DR DRB1*0405 (human)
- measurement-protocol: competition with 125I-labelled reference peptide, purified HLA
pIC50: −log10 of the molar value.

binder: AMVFSQEDCMIKAVR (modifications not checked) [Flu.PB2.404]
pIC50: 5.17
//
binder: RVVVSIDRFLRVRDQ (modifications not checked) [Flu.PB2.496]
pIC50: 5.69
//
binder: ESAVLRGFLILGKED (modifications not checked) [Flu.PB2.690]
pIC50: 5.15
//
binder: LIQLIVSGRDEQSIA (modifications not checked) [Flu.PB2.384]
pIC50: 6.34
